Experiment: Quantitative High-Throughput drug screen in 47 multiple myeloma cell lines against the NCATS MIPE library collection: KMS11_JCRBsus cell viability assay (AID 1919873); further: nearly all actives have a fitted effect of over 50% in size
Details: KMS11 myeloma viability, CellTiter-Glo ATP luminescence, 48 h; series mostly up to 45.8 µM
Results filed as inconclusive are left out. Active and inactive are the calls of the source. The call rests on the fitted dose curve; in most records, active means well fitted cell-killing curve with a large enough effect; inconclusive means small, poorly fitted or top-dose-only effect, or effect the other way; inactive means no such curve, though single readings can be large or run the other way.
Outcome (select one): true = active, false = inactive

Worked set:
CCN1C[C@H](C)n2c(c(O)c3c(=O)n(Cc4ccc(F)c(Cl)c4)nc(C(=O)NC)c32)C1=O; false
CC1(C)OC2CC3C4CC(F)C5=CC(=O)C=CC5(C)C4C(O)CC3(C)[C@]2(C(=O)CO)O1 (some centres undefined); true
CN1c2ccccc2C(=O)N2CCc3c([nH]c4ccccc34)C21 (centres undefined); true
CC(C)(C)c1[nH]cnc1C=c1[nH]c(=O)c(=Cc2ccccc2)[nH]c1=O; false
CCOC(=O)c1c(CSc2ccccc2)n(C)c2cc(Br)c(O)c(CN(C)C)c12; true

Which result was noted for this compound in the test: Cc1cn([C@@H]2C[C@@H](O)[C@H](CO)O2)c(=O)[nH]c1=O
false

Which result was noted for this compound in the test: CO[C@H]1/C=C\O[C@@]2(C)Oc3c(C)c(O)c4c(O)c(c5c(nc6cc(C)ccn65)c4c3C2=O)NC(=O)C(C)=CC=C[C@H](C)[C@H](O)[C@@H](C)[C@@H](O)[C@@H](C)[C@H](OC(C)=O)[C@H]1C
false

Which result was noted for this compound in the test: COc1c(C)cnc(Cn2cnc3c(Cl)nc(N)nc32)c1C
true

Which result was noted for this compound in the test: CN(C)CCN(Cc1ccc(Cl)cc1)c1ccccn1
false

Which result was noted for this compound in the test: O=C(C=Cc1ccc(O)cc1)c1ccc(O)cc1O
true

Which result was noted for this compound in the test: CCC(=C(CC)c1ccc(O)cc1)c1ccc(O)cc1
true

Which result was noted for this compound in the test: CO[C@H]1O[C@@H]2O[C@@]3(C)CC[C@@H]4[C@@H](C)CC[C@@H]([C@H]1C)[C@@]24OO3
false

Which result was noted for this compound in the test: CCN(CCO)CCCOc1ccc2c(Nc3cc(CC(=O)Nc4cccc(F)c4)[nH]n3)ncnc2c1
false

Which result was noted for this compound in the test: O=C(O)CCC=CCC[C@@H]1[C@H](N2CCCCC2)[C@@H](O)C[C@@H]1OCc1ccc(-c2ccccc2)cc1
false

Which result was noted for this compound in the test: CN1CCN2c3ncccc3Cc3ccccc3C2C1 (centres undefined)
false

Which result was noted for this compound in the test: C=C[C@@H]1CN2CCC1C[C@@H]2C(O)c1ccnc2ccc(OC)cc12 (some centres undefined)
false

Which result was noted for this compound in the test: CC1(C)C(N(O)C(=O)Nc2ccc(Cl)cc2)N(c2ccc(Cl)cc2)C(=O)N1CC(=O)NN=CC=Cc1ccc([N+](=O)[O-])o1 (centres undefined)
true

Which result was noted for this compound in the test: CC1C(=O)OC2C(O)C34C5CC(C(C)(C)C)C36C(OC(=O)C6O)OC4(C(=O)O5)C12O (centres undefined)
false

Which result was noted for this compound in the test: O=C(c1ccc(C=Cc2n[nH]c3ccccc23)cc1)N1CCNCC1
true
